Catalogue of molecules with associated MIC
System: Streptococcus pneumoniae
assay-notes: Antimicrobial activity against drug-resistant Streptococcus pneumoniae isolate 37 after 50 passages by multi-step resistance selection technique
Assay type: functional

molecule	tgt	MIC [µg/mL]
CO/N=C1\CN(c2nc3c(cc2F)c(=O)c(C(=O)O)cn3C2CC2)CC1CN (centres undefined)	Streptococcus pneumoniae	0.016
CN(C)c1cc(NC(=O)CNC(C)(C)C)c(O)c2c1C[C@H]1C[C@H]3[C@H](N(C)C)C(O)=C(C(N)=O)C(=O)[C@@]3(O)C(O)=C1C2=O	Streptococcus pneumoniae	0.016
CO/N=C(\C(=O)N[C@@H]1C(=O)N2C(C(=O)O)=C(CSc3nc(=O)c(O)nn3C)CS[C@H]12)c1csc(N)n1	Streptococcus pneumoniae	1
C[C@@H](O)[C@H]1C(=O)N2C(C(=O)O)=C(SCCNC=N)C[C@H]12 [IMIPENEM ANHYDROUS]	Streptococcus pneumoniae	0.5
